B1: C10orf62 (parent)
chain: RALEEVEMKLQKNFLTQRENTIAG

Variants of: B1
Assay: protein stability index of a GFP-peptide fusion (GPS, HEK-293T) (PSI 1-6); higher = more stable;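 further: lentivirally expressed fusions sorted by FACS into six bins by GFP to DsRed ratio, PSI derived from sequencing read proportions per bin multiplied by bin number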
Details: c terminus: a fixed tail appended
Class membership depends on protein stability index alone; the intervals are lower range (below 3), middle range (3 to below 4), upper range (4 or more)

[[record]]
seq_string = "RALEEVEMKLQKNFLTQRENMIAG"
label_class = "middle range"

[[record]]
seq_string = "RALEEVEMKLQKNFLKQRENTIAG"
label_class = "middle range"

[[record]]
seq_string = "RALEEVEMKLQFNFLTQRENTIAG"
label_class = "lower range"

[[record]]
seq_string = "RALEEVEMKMQKNFLTQRENTIAG"
label_class = "middle range"


Please let me know in which category the item `RALEEVEMKLQKNFLTQRENTIAP` belongs.
middle range

Please let me know in which category the item `RALEEEEMKLQKNFLTQRENTIAG` belongs.
upper range

Please let me know in which category the item `RALECVEMKLQKNFLTQRENTIAG` belongs.
lower range
